These measurements were taken from ChEMBL document CHEMBL3988442.

Recorded Percent Effect by entry
# tested.target: Proteasome subunit beta (Trypanosoma cruzi)
# assay.summary: Trypanosoma cruzi proteasome chymotrypsin-like activity (TcProtChymo) assay. Further: in the data most compounds retested in dose-response had high values.
# Assay type: functional
# Parameters: scale not given: direction of the effect not stated beside the values
# stated.conditions: 9.37 µM

{"compound": "COc1ccc(CNC(=O)N2CCC(Cc3cnn(C)c3)C2)cc1C (configuration not stated)", "Percent Effect, %": 11.2}
{"compound": "Cc1ccccc1CC(=O)N(C)C1CCCC1", "Percent Effect, %": 16.2}
{"compound": "CC(C)NC(=O)C1CN(C(=O)N2CCCC2)CC12CCOCC2 (configuration not stated)", "Percent Effect, %": -6.62}
{"compound": "Nc1nc2nc(C3CCCN(C(=O)c4cscn4)C3)ccc2s1 (configuration not stated)", "Percent Effect, %": 19.1}
{"compound": "Cc1cc(C)n(CCC(=O)N2CCCC(n3cncn3)C2)n1 (configuration not stated)", "Percent Effect, %": 5.68}
{"compound": "Cn1cc(CN2CCC3(CC2)CC(c2ccncc2)C(=O)N3)cn1 (configuration not stated)", "Percent Effect, %": 16.7}
{"compound": "Cc1nn(C)c(N(C)C)c1CNCCNS(C)(=O)=O", "Percent Effect, %": 9.3}
{"compound": "CCc1[nH]ncc1C(=O)N1CCCC(n2ccnc2C(C)C)C1 (configuration not stated)", "Percent Effect, %": 0.763}
{"compound": "CC(C)CNc1nc(C(=O)/N=c2\\[nH]nc(C(C)(C)C)s2)cs1", "Percent Effect, %": 12.3}
{"compound": "COC(=O)N1C[C@H]2CC[C@@H]1CN(Cc1cscn1)C2", "Percent Effect, %": 9.93}
{"compound": "COCCN1CCN(Cc2ccc(F)c(C)c2)[C@H]2CS(=O)(=O)C[C@H]21", "Percent Effect, %": 5.48}
{"compound": "Cc1ccc(CN2CCCn3c(nc(CN4CCCC4)cc3=O)C2)s1", "Percent Effect, %": 2.38}

* * *

# tested.target: AMP-activated protein kinase, AMPK (Homo sapiens) (UniProt P54646+O43741+P54619+Q9UGJ0+Q9Y478+Q13131+Q9UGI9)
# assay.summary: AMP-dependent Kinase enzyme assay. An in vitro enzyme assay that detects ADP turnover that is directly proportional to AMPK activity. This uses naive AMPK that is activated during the assay with MK-8722
# Format: functional
# Parameters: scale not given: direction of the effect not stated beside the values
# stated.conditions: 30 µM
Recorded Percent Effect by entry
readout: Percent Effect (%)

{"molecule": "Cc1nc(O)cc(C2(C)CCCNC2)n1 (stereo not given)", "measurement.unit": "%", "obs.value": 19.4}
{"molecule": "CCCN1CCC(CC(=O)NCc2cc(O)ncn2)CC1", "measurement.unit": "%", "obs.value": -4.63}
{"molecule": "NC(=O)c1cc(C2CCCN(Cc3ccc4c(c3)OCCO4)C2)n[nH]1 (stereo not given)", "measurement.unit": "%", "obs.value": 3.64}
{"molecule": "Cn1cc(CN2CCOC(c3cccc(-c4cncnc4)n3)C2)cn1 (stereo not given)", "measurement.unit": "%", "obs.value": 11.3}
{"molecule": "FC(F)(F)Oc1ccc(CN2CCCC(n3cncn3)C2)cc1 (stereo not given)", "measurement.unit": "%", "obs.value": 3.31}
{"molecule": "CN(Cc1cccs1)Cc1nnsc1Cl", "measurement.unit": "%", "obs.value": 12.6}
{"molecule": "COc1cccc(S(=O)(=O)N2CCCCC2CCN2CCCC2=O)c1 (stereo not given)", "measurement.unit": "%", "obs.value": 5.93}
{"molecule": "Cc1[nH]c2c(F)cccc2c1CC(=O)NC1CCCCNC1=O (stereo not given)", "measurement.unit": "%", "obs.value": 10.4}
{"molecule": "CNC(=O)[C@@H](C)NC(=O)c1cc(-c2ccc(F)cc2)c(C)s1", "measurement.unit": "%", "obs.value": 2.33}
{"molecule": "O=C1CN(C(=O)c2cc3c(F)cc(Br)cc3[nH]2)CCN1", "measurement.unit": "%", "obs.value": 8.46}
{"molecule": "CCC1COCCN1C(=O)NCc1nccn1CCc1ccccc1 (stereo not given)", "measurement.unit": "%", "obs.value": -3.33}
{"molecule": "COCCS(=O)(=O)NCc1ccc(N(C)C)c(C)c1", "measurement.unit": "%", "obs.value": 6.36}
{"molecule": "COc1ccc(C(C)NCCC(N)=O)cc1F (stereo not given)", "measurement.unit": "%", "obs.value": -6.1}
{"molecule": "CCc1nsc(N2CCCN(CC(=O)N(C)C3CC3)CC2)n1", "measurement.unit": "%", "obs.value": 7.28}
{"molecule": "CN(CCc1ccccn1)C(=O)c1cccs1", "measurement.unit": "%", "obs.value": 6.23}
{"molecule": "O=S(=O)(c1cccnc1)N1CCCCC1CCN1CCOCC1 (stereo not given)", "measurement.unit": "%", "obs.value": 16.1}
{"molecule": "CSc1ccccc1NC(=O)c1ccc(N2CCOCC2)nn1", "measurement.unit": "%", "obs.value": -1.6}
{"molecule": "Cn1cc(S(=O)(=O)Nc2ccc3[nH]c(C4CCC4)nc3c2)cn1", "measurement.unit": "%", "obs.value": -6.7}
{"molecule": "CN(Cc1ccccc1)S(=O)(=O)N1C[C@H](C2CC2)[C@@H](N)C1", "measurement.unit": "%", "obs.value": -0.41}
{"molecule": "CCc1nc(CNc2cc(C)nc(-c3cccnc3)n2)cs1", "measurement.unit": "%", "obs.value": -0.151}
{"molecule": "CCSCCn1cc(-c2ncc[nH]2)nn1", "measurement.unit": "%", "obs.value": -2.81}
{"molecule": "CC(C(=O)NCc1ccc(F)cc1)N(C)CCN1CCOCC1 (stereo not given)", "measurement.unit": "%", "obs.value": 2.87}
{"molecule": "O=C(O)c1ccc(C2CCCN(C(=O)c3ccc[nH]3)C2)cc1 (stereo not given)", "measurement.unit": "%", "obs.value": 3.76}
{"molecule": "C[C@@H]1CN(c2ccc(Cl)cn2)C[C@@]1(O)C1CC1", "measurement.unit": "%", "obs.value": 5.94}
{"molecule": "CNC(=O)C1(C)CN(S(=O)(=O)c2cccc(OC)c2)CCO1 (stereo not given)", "measurement.unit": "%", "obs.value": 4.63}
{"molecule": "CN(C)c1ncccc1NC(=O)COCC1CC1", "measurement.unit": "%", "obs.value": 2.89}
{"molecule": "Cn1ccnc1CNC(=O)c1cncc(C2CCNCC2)n1", "measurement.unit": "%", "obs.value": 1.13}
{"molecule": "Cc1ccc(-c2nc(CC3CCN(C)CC3)no2)cc1N1CCNC1=O", "measurement.unit": "%", "obs.value": 11.1}
{"molecule": "CS(=O)(=O)N1CCCC(c2cccc(-c3ccccc3F)n2)C1 (stereo not given)", "measurement.unit": "%", "obs.value": 12.2}
{"molecule": "Cc1cc(C(=O)Nc2ccc(OCCN3CCN(C)CC3)cc2)[nH]n1", "measurement.unit": "%", "obs.value": 14.7}
{"molecule": "CC(C)(C)CC(NC(=O)N1CCC(C(N)=O)CC1)C(F)(F)F (stereo not given)", "measurement.unit": "%", "obs.value": -1.73}
{"molecule": "OCCCNc1cccc(COC2CCCCC2)c1", "measurement.unit": "%", "obs.value": -15.3}
{"molecule": "COc1ncc(NCc2ccc(F)cc2)cc1C(N)=O", "measurement.unit": "%", "obs.value": 5.39}
{"molecule": "CC(C)Cn1ccnc1CNC(=O)N1CCCC1CN1CCOCC1 (stereo not given)", "measurement.unit": "%", "obs.value": -4.29}
{"molecule": "O=C(CCn1ccnc1)N1CCC(c2nnc(-c3ccccn3)o2)CC1", "measurement.unit": "%", "obs.value": 1.44}
{"molecule": "CN(C)c1nc(CNC(=O)Nc2cccc([S+](C)[O-])c2)cs1 (stereo not given)", "measurement.unit": "%", "obs.value": 5.35}
{"molecule": "CCc1nnc2n1CCN(c1nc(C)cc(N(C)C)n1)C2", "measurement.unit": "%", "obs.value": -7.79}
{"molecule": "O=C(NCC(O)c1cccc(F)c1)C1CCN(C2CCCCC2)CC1 (stereo not given)", "measurement.unit": "%", "obs.value": -10}
{"molecule": "c1nc(N2CCOCC2)sc1-c1cncn1CCCN1CCCCC1", "measurement.unit": "%", "obs.value": -0.295}
{"molecule": "CC(=O)N[C@H]1CN(S(=O)(=O)N(C)Cc2ccccc2)C[C@@H]1C1CC1", "measurement.unit": "%", "obs.value": 1.32}
{"molecule": "COC[C@@H]1CCCN1C(=O)CCc1c(C)nn(C)c1C", "measurement.unit": "%", "obs.value": -3.67}
{"molecule": "Cc1ccsc1C(CNC(=O)c1cc(=O)[nH]c(=O)[nH]1)N(C)C (stereo not given)", "measurement.unit": "%", "obs.value": 3.78}
{"molecule": "CC(CC(F)(F)F)NCc1ccccc1-n1ccnc1 (stereo not given)", "measurement.unit": "%", "obs.value": -3.96}
{"molecule": "CCCC1COCCN1Cc1ccc(S(=O)(=O)NC)cc1 (stereo not given)", "measurement.unit": "%", "obs.value": 0.167}
{"molecule": "CCOc1ccc(C(=O)NC2CC2)cc1C", "measurement.unit": "%", "obs.value": 4.59}
{"molecule": "Cn1cc(CCCN2CCCC(c3cc(C(F)(F)F)[nH]n3)C2)cn1 (stereo not given)", "measurement.unit": "%", "obs.value": -0.434}
{"molecule": "Cc1ccsc1C(=O)NCc1ccnc(C2CCCOC2)n1 (stereo not given)", "measurement.unit": "%", "obs.value": 11.8}
{"molecule": "c1ccc(Cc2noc(-c3ccc(NCC4COCCO4)nc3)n2)cc1 (stereo not given)", "measurement.unit": "%", "obs.value": 8.79}
{"molecule": "CCSCC(C)NCc1ccccc1-n1ccnc1 (stereo not given)", "measurement.unit": "%", "obs.value": 7.25}
{"molecule": "CCC(O)CN1CCN(C(=O)CCSC)CC1 (stereo not given)", "measurement.unit": "%", "obs.value": -2.43}
